tested on: SR leukemia; test: NCI-60 one-dose screen, 48 h (100 = growth as untreated, 0 = no growth, -100 = all killed); conditions: 10 µM unless noted
Compounds without any hit were thinned out: in the full panel of roughly 83,000, 20% have a hit. Activity calls are given as the source filed them. The calls were made as follows: active = growth percent below 10; inactive = the rest.
Measured growth of individual entries

Example results:
INSERT INTO measurements (compound, assay_metric, reported_value) VALUES
  ('O=S1(=O)NCCCN1CCNc1nccc(-c2c(-c3cccc(O)c3)nc3sccn23)n1', 'growth', '23.2% (inactive)'),
  ('CC(=O)Oc1c(Cl)c(Cl)c(Cl)c(Cl)c1Cl', 'growth', '106% (inactive)'),
  ('Nc1c(Br)cc2c(c1Br)Cc1cc(Cl)ccc1-2', 'growth', '80% (inactive)');

Please look up its growth: CCCCn1cnc2c(SCc3ccc([N+](=O)[O-])cc3)nc(N)nc21 37.6% (inactive)

Please look up its growth: CN1C(=O)N(C)C2C1NN=c1s/c(=C\c3ccsc3)c(=O)n12 (stereo not drawn) 20.6% (inactive)

Please look up its growth: N=C(N)c1ccc(-c2ccc(-c3cccs3)s2)cc1F -23.8% (active)

Please look up its growth: COC(=O)C(Br)(C(=O)OC)C(Br)C(Br)C(Br)c1ccccc1 (stereo not drawn) 47.6% (inactive)

Please look up its growth: CC(C)c1ccc(-c2cnc3nonc3n2)cc1 6.91% (active)

Please look up its growth: COc1ccc([C@H]2c3[nH]c4ccccc4c3C[C@H]3C(=O)N(CCCCCCC(=O)NO)CC(=O)N23)cc1 16.5% (inactive)

---

test system: SK-MEL-5 melanoma; test: NCI-60 one-dose screen, 48 h; details: 10 µM unless noted
About 83,000 compounds went through this panel and 20% of them were active in at least one assay; those are over-represented in the sample as a whole. The source made the active and inactive calls. The calls were made as follows: active = growth percent below 10; inactive = the rest.
Valid outcomes are listed here; reply with one: active, inactive

INSERT INTO measurements (molecule, category_label) VALUES
  ('Oc1c(C(Nc2cccc3ccccc23)c2ccccc2)ccc2cccnc12 (stereo unspecified)', 'inactive'),
  ('COc1ccc(-c2cnnn2-c2nonc2-n2cccc2)cc1', 'inactive'),
  ('S=C(Nc1ccc(Cl)cc1)Nc1ccc(Cl)cc1 (tested in a mixture with another compound)', 'active'),
  ('COc1cc(/C=C\c2cc(/C=C\c3ccc(O)c(OC)c3)n(C(=O)Nc3ccc(C(F)(F)F)cc3)n2)ccc1O', 'inactive'),
  ('COc1ccccc1/C=N\Nc1ccc([N+](=O)[O-])cn1', 'inactive'),
  ('CNCCCn1c2c(c3ccc(Cl)cc3c1=O)C(=O)c1cc(OC)cnc1-2', 'inactive');

Which result was noted for this molecule in the test: CC(=O)Oc1c(Cl)c(Cl)c(Cl)c(Cl)c1Cl inactive

Which result was noted for this molecule in the test: CC(=O)c1ccc(N2C(=O)c3ccc(Oc4ccccc4)cc3C2=O)cc1 inactive

Which result was noted for this molecule in the test: Clc1ccc(C2=NN[C@H](c3cn(-c4ccccc4)nc3-c3ccccc3)C2)cc1 inactive

Which result was noted for this molecule in the test: COc1cc(C2CC(c3cccc(Nc4ccnc5cc(Cl)ccc45)c3)=NN2C=O)cc(OC)c1OC (stereo unspecified) active

Which result was noted for this molecule in the test: O=C1/C(=C/c2ccccc2)SC(=Nc2ccccc2)N1Nc1ccccc1 active

Which result was noted for this molecule in the test: COc1cc(OC)c(Cl)cc1N inactive

Which result was noted for this molecule in the test: COc1ccc(-n2c(COc3ccc(F)cc3)n[nH]c2=S)cc1 inactive

Which result was noted for this molecule in the test: COc1ccc(-c2nc3ccccc3n3cccc23)cc1 inactive

Which result was noted for this molecule in the test: C=C1C(=O)O[C@H]2[C@H]1CC/C(COC(=O)NCc1cn(C)c3ccccc13)=C\CC[C@@]1(C)O[C@@H]21 inactive

Which result was noted for this molecule in the test: COc1ccc(-c2cc(-c3ccc(OC)cc3)c3sc(=O)[nH]c3n2)cc1 inactive

Which result was noted for this molecule in the test: CCCCCCCCCCCCCCCCCC(=O)[O][Sn]([CH2]CCC)([CH2]CCC)[CH2]CCC active

Which result was noted for this molecule in the test: CCN(CC)c1ccc(/C=C2/NC(=O)NC2=O)cc1 active

Which result was noted for this molecule in the test: CCn1c(Cc2ccccc2Nc2c(Cl)cccc2Cl)nnc1SCC(=O)Nc1ccccc1C(F)(F)F inactive

Which result was noted for this molecule in the test: CC(C)[C@@]12C[C@@H](OC(=O)[C@H]3CO3)[C@@](C)(O1)[C@@H]1CC[C@@H](C)[C@H]1[C@@H]2OC(=O)/C=C/c1ccccc1 inactive

Which result was noted for this molecule in the test: c1coc(CNc2c3ccccc3nc3ccccc23)c1 inactive

The values you see were collected from PubChem BioAssay (NCI).
